Method: Pharmacokinetics of LNK-754-TS in mice, oral
Assay type: in vivo, mouse
Recorded Conditions: C57BL/6, mouse, in vivo, po, 9 mg/kg, Group 9 (9 mg/kg Day 5), C57BL/6 mice, oral
Measured Parameter: AUC(0-t) (ng·h/mL)
Answers are plain numbers, in ng·h/mL.

Answer with the recorded AUC(0-t) for the molecule listed here: C#Cc1cccc(-c2cc(=O)n(C)c3ccc([C@](O)(c4ccc(Cl)cc4)c4cncn4C)cc23)c1
2630

* * *

Method: Pharmacokinetics of LNK-754-TS in mice, oral
Type: in vivo, mouse
Recorded Conditions: C57BL/6, mouse, in vivo, po, 9 mg/kg, Group 6 (9 mg/kg BID), C57BL/6 mice, oral; read-out: MRT(0-∞)
Measured Parameter: MRT inf (h)
One number for each entry, in h.

Give the reported MRT inf for this molecule. C#Cc1cccc(-c2cc(=O)n(C)c3ccc([C@](O)(c4ccc(Cl)cc4)c4cncn4C)cc23)c1 [LNK-754-TS]
2.67

* * *

Method: Pharmacokinetics of Zarnestra in C57BL/6 mice, oral
Assay type: in vivo, mouse
Recorded Conditions: mouse, plasma, Blood, oral 5 mg/kg single dose
Measured Parameter: Tmax (h)
Answers are plain numbers, in h.

Specify measured Tmax for Cn1cncc1[C@@](N)(c1ccc(Cl)cc1)c1ccc2c(c1)c(-c1cccc(Cl)c1)cc(=O)n2C .
1

* * *

Method: Pharmacokinetics of LNK-754-TS in mice, oral
Format: in vivo, mouse
Recorded Conditions: C57BL/6, mouse, in vivo; 9 mg/kg oral, BID day 1, 20% beta-cyclodextrin, mice
Measured Parameter: Tmax (h)
Answers are plain numbers, in h.

In one line, give reported Tmax of the entry C#Cc1cccc(-c2cc(=O)n(C)c3ccc([C@](O)(c4ccc(Cl)cc4)c4cncn4C)cc23)c1 .
1

* * *

Method: Pharmacokinetics of LNK-754-TS in mice, oral
Format: in vivo, mouse
Recorded Conditions: C57BL/6, mouse, in vivo, po, 9 mg/kg, 9 mg/kg oral, BID day 5, 20% beta-cyclodextrin, mice
Measured Parameter: Cmax (ng/mL)
One number for each entry, in ng/mL.

Quote Cmax reported for C#Cc1cccc(-c2cc(=O)n(C)c3ccc([C@](O)(c4ccc(Cl)cc4)c4cncn4C)cc23)c1 [LNK-754-TS] please.
1480

* * *

Method: Pharmacokinetics of Zarnestra in C57BL/6 mice, oral
Type: in vivo, mouse
Recorded Conditions: mouse, Brain, oral 5 mg/kg single dose, read-out: MRT(0-[…])
Measured Parameter: MRT (h)
Answers are plain numbers, in h.

Give recorded MRT. Cn1cncc1[C@@](N)(c1ccc(Cl)cc1)c1ccc2c(c1)c(-c1cccc(Cl)c1)cc(=O)n2C [Zarnestra®]
11.4

* * *

Method: Pharmacokinetics of Zarnestra in C57BL/6 mice, oral
Type: in vivo, mouse
Recorded Conditions: mouse, plasma, Blood, oral 5 mg/kg single dose
Measured Parameter: half-life (h)
Give bare numbers, in h.

Give reported half-life value for Cn1cncc1[C@@](N)(c1ccc(Cl)cc1)c1ccc2c(c1)c(-c1cccc(Cl)c1)cc(=O)n2C
1.31

* * *

Method: Pharmacokinetics of Zarnestra in C57BL/6 mice, oral
Format: in vivo, mouse
Recorded Conditions: mouse, plasma, Blood, oral 5 mg/kg single dose
Measured Parameter: Cmax (ng/mL)
One number for each entry, in ng/mL.

Specify reported Cmax for the compound shown: Cn1cncc1[C@@](N)(c1ccc(Cl)cc1)c1ccc2c(c1)c(-c1cccc(Cl)c1)cc(=O)n2C
40.4

* * *

Method: Pharmacokinetics of LNK-754-TS in mice, oral
Type: in vivo, mouse
Recorded Conditions: C57BL/6, mouse, in vivo, po, 9 mg/kg, Group 6 (9 mg/kg BID), C57BL/6 mice, oral
Measured Parameter: Cmax

Return Cmax for the following compound: C#Cc1cccc(-c2cc(=O)n(C)c3ccc([C@](O)(c4ccc(Cl)cc4)c4cncn4C)cc23)c1
1390 ng/mL

* * *

Method: Pharmacokinetics of LNK-754-TS in mice, oral
Format: in vivo, mouse
Recorded Conditions: C57BL/6, mouse, in vivo; 0.9 mg/kg oral, QD day 1, 5% beta-cyclodextrin, mice
Experimental: In the experimental data represented in Table 2A, a different method of drug delivery is used (oral) than in the experiment represented in FIG. 3. […] We can compare the calculated AUC values for the continuous infusion oncology study presented in FIG. 3 and the AUC values associated with the synuclein model doses in the table. […] The pharmacokinetic profiles of LNK-754-TS and Zarnestra® were analyzed using methods known in the art. […]
Measured Parameter: Tmax (min)
Answers are plain numbers, in min.

Note down Tmax recorded for C#Cc1cccc(-c2cc(=O)n(C)c3ccc([C@](O)(c4ccc(Cl)cc4)c4cncn4C)cc23)c1
30

* * *

Method: Pharmacokinetics of Zarnestra in C57BL/6 mice, oral
Format: in vivo, mouse
Recorded Conditions: mouse, plasma, Blood, oral 5 mg/kg single dose, read-out: MRT(0-[…])
Measured Parameter: MRT

Determine from records and report MRT for Cn1cncc1[C@@](N)(c1ccc(Cl)cc1)c1ccc2c(c1)c(-c1cccc(Cl)c1)cc(=O)n2C
1.76 h

* * *

Method: Pharmacokinetics of LNK-754-TS in mice, oral
Format: in vivo, mouse
Recorded Conditions: Group 5 (9 mg/kg SID), C57BL/6 mice, oral
Measured Parameter: Tmax (h)
Answers are plain numbers, in h.

State, in one line, measured Tmax of C#Cc1cccc(-c2cc(=O)n(C)c3ccc([C@](O)(c4ccc(Cl)cc4)c4cncn4C)cc23)c1 [LNK-754-TS]
1

* * *

Method: Pharmacokinetics of LNK-754-TS in mice, oral
Assay type: in vivo, mouse
Recorded Conditions: C57BL/6, mouse, in vivo, po, 9 mg/kg, Group 9 (9 mg/kg Day 5), C57BL/6 mice, oral
Measured Parameter: Cmax

Using known records, supply Cmax for C#Cc1cccc(-c2cc(=O)n(C)c3ccc([C@](O)(c4ccc(Cl)cc4)c4cncn4C)cc23)c1
1490 ng/mL

* * *

Method: Pharmacokinetics of LNK-754-TS in mice, oral
Type: in vivo, mouse
Recorded Conditions: C57BL/6, mouse, in vivo, po, 0.09 mg/kg, 0.09 mg/kg oral, QD day 1, 5% beta-cyclodextrin, mice
Protocol: In the experimental data represented in Table 2A, a different method of drug delivery is used (oral) than in the experiment represented in FIG. 3. […] We can compare the calculated AUC values for the continuous infusion oncology study presented in FIG. 3 and the AUC values associated with the synuclein model doses in the table. […] The pharmacokinetic profiles of LNK-754-TS and Zarnestra® were analyzed using methods known in the art. […]
Measured Parameter: Cmax
Note to self: number, then unit, no commentary.

State, in one line, measured Cmax of C#Cc1cccc(-c2cc(=O)n(C)c3ccc([C@](O)(c4ccc(Cl)cc4)c4cncn4C)cc23)c1
0.61 ng/mL

* * *

Method: Pharmacokinetics of LNK-754-TS in mice, oral
Format: in vivo, mouse
Recorded Conditions: C57BL/6, mouse, in vivo, po, 9 mg/kg, Group 5 (9 mg/kg SID), C57BL/6 mice, oral
Measured Parameter: half-life (h)
One number for each entry, in h.

Given the compound C#Cc1cccc(-c2cc(=O)n(C)c3ccc([C@](O)(c4ccc(Cl)cc4)c4cncn4C)cc23)c1 , write its reported half-life.
1.5

* * *

Test Target: FTase (Homo sapiens, UniProt P49354+P49356)
Method: Table 5A in vitro FTI (H-Ras, K-Ras protein) and Ki FTase
Type: biochemical
Recorded Conditions: read-out: K-Ras protein CVIM in vitro FTI
Measured Parameter: pIC50
One number for each entry, as −log10 of the molar value.

// Input: C#Cc1cccc(-c2cc(=O)n(C)c3ccc([C@](O)(c4ccc(Cl)cc4)c4cncn4C)cc23)c1 . Output its pIC50 only.
7.14

* * *

Test Target: FTase (Homo sapiens, UniProt P49354+P49356)
Method: Table 5A in vitro FTI (H-Ras, K-Ras protein) and Ki FTase
pKi: −log10 of the molar value.
Measured Parameter: pKi

Quickly give me recorded pKi for C#Cc1cccc(-c2cc(=O)n(C)c3ccc([C@](O)(c4ccc(Cl)cc4)c4cncn4C)cc23)c1 [LNK-754]
> 10.30

* * *

Method: Pharmacokinetics of LNK-754-TS in mice, oral
Assay type: in vivo, mouse
Recorded Conditions: C57BL/6, mouse, in vivo, po, 9 mg/kg, 9 mg/kg oral, BID day 1, 20% beta-cyclodextrin, mice
Measured Parameter: Cmax (ng/mL)
Give bare numbers, in ng/mL.

// fetch Cmax given entry C#Cc1cccc(-c2cc(=O)n(C)c3ccc([C@](O)(c4ccc(Cl)cc4)c4cncn4C)cc23)c1
1380

* * *

Method: Pharmacokinetics of LNK-754-TS in mice, oral
Format: in vivo, mouse
Recorded Conditions: C57BL/6, mouse, in vivo, po, 9 mg/kg, Group 6 (9 mg/kg BID), C57BL/6 mice, oral
Measured Parameter: AUC(0-inf)

Give AUC(0-inf) for the following compound: C#Cc1cccc(-c2cc(=O)n(C)c3ccc([C@](O)(c4ccc(Cl)cc4)c4cncn4C)cc23)c1
2290 ng·h/mL
